Tested on: SNB-75
protocol_summary: NCI tumour cell line growth inhibition, 48 h
Calls of active or inactive are those of the source. Rule as the data show it: active = GI50 up to about 1.1 µM and inactive = higher.

compound | target_of_assay | GI50
NC(=S)N/N=C/C(=C/Nc1ccccc1)[N+](=O)[O-] | SNB-75 | > 100 µM (inactive)
Cc1ccc(S(=O)(=O)N2C3C=CC(C3)[C@@H]2C(Cl)(Cl)Cl)cc1 (stereo partly drawn) | SNB-75 | 18.2 µM (inactive)
COc1cc(C2C=C(c3ccccc3)Oc3cc4c(cc32)OCO4)cc(OC)c1OC (stereo not drawn) | SNB-75 | 2.4 µM (inactive)
O=S1(=O)CCC2=CC(C(F)(F)F)=CC(C(F)(F)F)=CN21 | SNB-75 | 1.71 µM (inactive)
CCS(=O)(=O)c1c2cc(OC)ccc2nc2ccc(OC)cc12 | SNB-75 | > 100 µM (inactive)
CCN(CC)CC(=O)Nc1c(C(N)=O)nnn1Cc1cc(Cl)c(C(=O)c2ccc(Cl)cc2)c(Cl)c1 | SNB-75 | 21 µM (inactive)
COc1ccc(C(O)c2ccccn2)cc1 (stereo not drawn) | SNB-75 | > 100 µM (inactive)
CCOC(=O)N/N=C(/N)c1cccc([N+](=O)[O-])c1 | SNB-75 | 80.2 µM (inactive)
C=C(C)COC(=O)COCC(=O)OCC(=C)C | SNB-75 | > 100 µM (inactive)
CCOC(=O)C1C(=O)CC(O)(OCC)C(C(=O)OCC)C1c1ccc(OC)cc1 (stereo not drawn) | SNB-75 | > 100 µM (inactive)
CSC(=Nc1nnc(-c2ccc([N+](=O)[O-])cc2)s1)SC | SNB-75 | 11.9 µM (inactive)
C=CC(C)(C)c1c(OC)oc2ccc(OC)c(C)c2c1=O | SNB-75 | 89.5 µM (inactive)
COc1cccc(C2CC(C)(O)Oc3cc4c(cc32)OCO4)c1O (stereo not drawn) | SNB-75 | 14.2 µM (inactive)
CCc1ccccc1NC(=O)/C(=N/O)C(C)=O | SNB-75 | > 100 µM (inactive)
CC(C)(C)c1ccc(-c2nc3ccccc3c(=O)o2)cc1 | SNB-75 | 24 µM (inactive)
Cc1ccc(-n2nnc(C(N)=O)c2O)cc1 | SNB-75 | > 100 µM (inactive)
CCOC(=N)CC(=O)Nc1cccc(Cl)c1 | SNB-75 | > 100 µM (inactive)
[N-]=[N+]=Nc1c(Cl)c(Cl)nc2ccccc12 | SNB-75 | 44.8 µM (inactive)
COc1cccc(NC(=O)CC(=O)N2N=C(C)C(/N=N\c3ccc(S(=O)(=O)c4ccc(/N=N/C5C(=O)N(C(=O)CC(=O)Nc6cccc(OC)c6)N=C5C)cc4)cc3)C2=O)c1 (stereo not drawn) | SNB-75 | > 100 µM (inactive)
O=C(Cn1c(=O)oc2ccc(C(=O)c3ccc(F)cc3)cc21)c1ccccc1 | SNB-75 | > 100 µM (inactive)
[N-]=[N+]=C1C(=O)C2CC3CC1CC2C3 (stereo not drawn) | SNB-75 | > 100 µM (inactive)
CN(C)CCNC(=O)c1nc([N+](=O)[O-])cn1C | SNB-75 | > 100 µM (inactive)
CN(C)c1cc2ccccc2oc1=O | SNB-75 | > 100 µM (inactive)

====

System: COLO 205
protocol_summary: NCI tumour cell line growth inhibition, 48 h
The source made the active and inactive calls. No stated cut-off is given here; in the data, active = GI50 up to about 1.1 µM and inactive = higher.

compound | GI50
C/C(=C\COP(=O)(O)OP(=O)(O)O)CC/C=C(\C)CNc1c(F)c(F)c(F)c(F)c1F | > 100 µM (inactive)
COc1cc(C(=O)NNC(=O)c2cc(Br)ccc2NC(=O)c2cccs2)cc(OC)c1OC | 12.9 µM (inactive)
CCOC(=O)C1C(=O)CC(O)(OCC)C(C(=O)OCC)C1c1ccc(OC)cc1 (configuration not stated) | > 100 µM (inactive)
CC(=O)Oc1ccc2c(c1)c1c(OC(C)=O)c3ccccc3c(OC(C)=O)c1n2Cc1cccc(C)c1 | 60.5 µM (inactive)
Cc1ccc(NC(=O)C(=O)C2C(=O)NC(=O)NC2=O)c(C)c1 | 13.8 µM (inactive)
CC1=CC(=O)/C(=C/NC(=S)C(N)=S)C(=O)O1 | > 100 µM (inactive)
Cc1ccc(C2=NN=C3C(c4ccccc4)=Nc4ccccc4N3C2)cc1 | 9.77 µM (inactive)
